STUDY TARGET: T1, human IL-33 (R&D Systems, #3625-IL-010/CF) (human, UniProt O95760 112-270)
T1 construct: Commercial recombinant protein; also called hIL-33; interleukin-33
T1 sequence (looked up): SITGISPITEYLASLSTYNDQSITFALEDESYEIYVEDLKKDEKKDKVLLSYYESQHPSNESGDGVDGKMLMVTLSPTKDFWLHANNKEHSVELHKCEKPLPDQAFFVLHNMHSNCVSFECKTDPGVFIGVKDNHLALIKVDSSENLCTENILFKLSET
PROTOCOL TEXT: SPR 37C pH7.4, mAb captured
Entries and their kon values follow.

BINDER | kon / M⁻¹ s⁻¹
H4H9667P (antibody, human IgG4, V domains shown, Human IgG4 Fc (H4H)) VH: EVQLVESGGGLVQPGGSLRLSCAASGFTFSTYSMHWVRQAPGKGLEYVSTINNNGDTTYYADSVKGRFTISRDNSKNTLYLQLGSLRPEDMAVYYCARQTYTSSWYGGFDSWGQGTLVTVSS VL: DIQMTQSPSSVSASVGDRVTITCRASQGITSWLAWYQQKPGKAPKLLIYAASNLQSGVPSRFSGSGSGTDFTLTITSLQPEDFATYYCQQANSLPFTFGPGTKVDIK | 976000
H4H9671P (antibody, human IgG4, V domains shown, Human IgG4 Fc (H4H)) VH: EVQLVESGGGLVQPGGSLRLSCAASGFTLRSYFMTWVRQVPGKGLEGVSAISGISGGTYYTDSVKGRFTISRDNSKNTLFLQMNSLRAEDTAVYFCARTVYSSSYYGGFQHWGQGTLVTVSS VL: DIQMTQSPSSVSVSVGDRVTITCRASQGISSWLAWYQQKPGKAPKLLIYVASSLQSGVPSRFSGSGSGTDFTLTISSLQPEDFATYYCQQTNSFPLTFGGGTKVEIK | 1.21e+06
H4H9629P (antibody, human IgG4, V domains shown, Human IgG4 Fc (H4H)) VH: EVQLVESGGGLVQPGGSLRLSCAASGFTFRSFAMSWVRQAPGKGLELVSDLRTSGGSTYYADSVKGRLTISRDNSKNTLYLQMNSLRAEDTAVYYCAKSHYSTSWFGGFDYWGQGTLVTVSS VL: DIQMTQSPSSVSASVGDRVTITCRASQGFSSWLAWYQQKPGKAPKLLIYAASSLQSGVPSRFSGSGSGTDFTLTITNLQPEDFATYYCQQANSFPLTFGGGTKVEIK | 1.27e+06

Where do these numbers come from? They come from patent US20160362487A1.
